From: patent US20110301200A1

Biological target: TR-α (Homo sapiens)
Sequence (P10827 1-410 isoform P10827-2): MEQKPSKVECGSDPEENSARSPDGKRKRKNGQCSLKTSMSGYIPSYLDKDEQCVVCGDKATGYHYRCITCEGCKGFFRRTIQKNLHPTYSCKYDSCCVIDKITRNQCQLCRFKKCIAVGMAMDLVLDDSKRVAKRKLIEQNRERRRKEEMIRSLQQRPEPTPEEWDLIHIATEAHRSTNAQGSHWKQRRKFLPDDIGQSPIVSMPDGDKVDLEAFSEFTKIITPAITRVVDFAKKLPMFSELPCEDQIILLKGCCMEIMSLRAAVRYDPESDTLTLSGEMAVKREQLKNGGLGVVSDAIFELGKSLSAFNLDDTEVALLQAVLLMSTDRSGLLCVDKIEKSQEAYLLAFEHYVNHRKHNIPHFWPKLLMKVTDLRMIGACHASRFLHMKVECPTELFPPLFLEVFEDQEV
Assay: In vitro TR-α activity (in-house protocol)
Assay type: cell-based
Conditions: Conc. 100 nM; read-out: TR-α Fold Induction w.r.t T3(100 nm)
Use T when the recorded fold induction at 0.1 µM is no lower than 30; use F when it is lower.

molecule: CC(ON=Cc1cc(Br)c(Oc2ccc(O)c(S(=O)(=O)N3CCCCC3)c2)c(Br)c1)C(=O)O (centres unmarked)
answer label: T
--
molecule: O=C(O)CON=Cc1cc(Cl)c(Oc2ccc(O)c(Cc3ccccc3)c2)c(Cl)c1
answer label: F
--
molecule: O=C(O)CON=Cc1cc(Br)c(Oc2ccc(O)c(S(=O)(=O)N3CCCC3)c2)c(Br)c1
answer label: F
--
molecule: CC(C)(ON=Cc1cc(Br)c(Oc2ccc(O)c(Cc3ccccc3)c2)c(Br)c1)C(=O)O
answer label: T
--
molecule: CC(C)c1cc(Oc2c(Cl)cc(C=NOCC(=O)O)cc2Cl)ccc1O
answer label: T
